B1: library; a variant is named by its letters at N, in order (parent)
chain: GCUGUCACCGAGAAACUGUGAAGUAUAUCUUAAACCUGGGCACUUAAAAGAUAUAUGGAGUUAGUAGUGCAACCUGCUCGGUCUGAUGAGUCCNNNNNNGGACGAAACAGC

Variants of: B1
Experiment notes: normalized RNA/DNA level without ligand (relative to sTRSVctl = 100) (log10 (% of sTRSVctl)); HEK293T; ligand: cyclic di-GMP (c-di-GMP-II aptamer); higher = less ribozyme self-cleavage, higher mRNA level
Settings: reporter: mCherry (pCS4076), ligand present: no
Reported values of normalized RNA/DNA level without ligand (log10) for individual entries
// return just the number, without any unit appended

{"columns": ["Variant spec", "Endpoint result"],
 "data": [
  ["CAUGCA", 1.52],
  ["GGUAUG", 1.59]
]}

[Q] Read the entry GGGAAU and write its reported normalized RNA/DNA level without ligand (log10).
[A] 1.6

[Q] For the variant UUCAUG , give its reported normalized RNA/DNA level without ligand (log10).
[A] 1.7

[Q] Give the reported normalized RNA/DNA level without ligand (log10) for this variant. CGGUGA
[A] 1.4
